# target.system: T1, ICAM-1-Fcγ (ICAM-1 residues of 1-480 fused to the Fc of human IgG, R&D Systems) (human, UniProt P05362 28-480)
# T1 construct: range 1-480; Bought (R&D Systems); also called ICAM-1-Fcγ chimera; not shown: Fc of human IgG
# T1 sequence (P05362 28-480 limits assumed, form in doubt): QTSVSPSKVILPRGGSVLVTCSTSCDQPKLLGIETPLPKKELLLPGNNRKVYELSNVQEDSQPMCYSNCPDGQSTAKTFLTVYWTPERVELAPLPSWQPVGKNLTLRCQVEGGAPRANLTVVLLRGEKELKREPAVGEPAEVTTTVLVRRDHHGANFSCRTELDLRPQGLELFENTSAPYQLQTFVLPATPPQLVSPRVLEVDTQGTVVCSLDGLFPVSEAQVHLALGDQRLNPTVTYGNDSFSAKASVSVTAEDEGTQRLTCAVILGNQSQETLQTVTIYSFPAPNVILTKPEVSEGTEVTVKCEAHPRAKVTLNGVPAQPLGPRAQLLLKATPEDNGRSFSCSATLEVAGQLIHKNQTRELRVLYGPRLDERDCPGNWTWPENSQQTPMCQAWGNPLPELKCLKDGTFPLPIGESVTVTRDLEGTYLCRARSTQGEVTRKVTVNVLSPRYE
# test.description: flow cytometry on yeast-displayed I domain, ICAM-1-Fcγ 10 µg/ml
For each of the binders below, state its ICAM-1 (% ASFI of HA).

{"columns": ["binder", "measurement.label", "observed"],
 "data": [
  ["αL I domain clone m12c (I309T), yeast-displayed (receptor, yeast surface display; not shown: Aga2, linker and hemagglutinin tag of pCTCON; c-myc tag) NVDLVFLFDGSMSLQPDEFQKILDFMKDVMKKLSNTSYQFAAVQFSTSYKTEFDFSDYVKWKDPDALLKHVKHMLLLTNTFGAINYVATEVFREELGARPDATKVLIIITDGEATDSGNIDAAKDIIRYIIGIGKHFQTKESQETLHKFASKPASEFVKILDTFEKLKDLFTELQKKIYVTEGTSKQDLT", "ICAM-1 (% ASFI of HA)", "17 % ASFI of HA"]
]}

*Q* Entry αL I domain clone m5 (L274I, S279T), yeast-displayed (receptor, yeast surface display; not shown: Aga2, linker and hemagglutinin tag of pCTCON; c-myc tag) NVDLVFLFDGSMSLQPDEFQKILDFMKDVMKKLSNTSYQFAAVQFSTSYKTEFDFSDYVKWKDPDALLKHVKHMLLLTNTFGAINYVATEVFREELGARPDATKVLIIITDGEATDSGNIDAAKDIIRYIIGIGKHFQTKESQETIHKFATKPASEFVKILDTFEKLKDLFTELQKKIYVIEGTSKQDLT has what ICAM-1 (% ASFI of HA)?
*A* 51 % ASFI of HA
